Test: qHTS assay to identify small molecule antagonists of the estrogen related receptor (ERR) signaling pathway from Tox21 library - cell viability counter screen (AID 1224834); further: nearly all actives have a fitted effect of over 30% in size
Conditions: ERR reporter cells viability, CellTiter-Fluor, 17.5 h; series mostly up to 92.4 µM
Records with an inconclusive call do not appear. Calls of active or inactive are those of the source. The call rests on the fitted dose curve; in most records, active means well fitted cell-killing curve with a large enough effect in the repeat runs; inconclusive means weak or mixed curves; inactive means flat fitted curve, though single readings scatter.
Outcome codes: active, inactive

Molecule	Label
CCCCC(CC)COP(=O)(Oc1ccccc1)Oc1ccccc1 (stereo unspecified)	inactive
O=C(N[C@H](c1ccccc1)[C@@H]1CN2CCC1CC2)c1c(Cl)ccc(C(F)(F)F)c1Cl	active
O=C(O)C(F)(F)C(F)(F)C(F)(F)C(F)(F)C(F)(F)C(F)(F)C(F)(F)C(F)(F)C(F)(F)F	inactive
O=C=Nc1ccc(Cl)cc1	inactive
CCCCC(O)(Cn1cncn1)c1ccc(Cl)cc1Cl (stereo unspecified)	active
ClCc1cccc(Cl)c1	inactive
